These measurements were taken from patent US20260193271A1.

# System: SW480 (G12V)
# ASSAY PROCEDURE: In vitro cell proliferation inhibition test (CellTiter-Glo), SW480
# Type: cell-based
# CONDITION INFO: Homo sapiens, SW480 colon cell line, KRAS (p.G12V), 72 h co-incubation
RESULT TYPE: IC50 (nM)
Number only, in nM; omit the unit.

CCn1c(-c2cc(-c3ccc4c(c3)CN(C)C4)cnc2[C@H](C)OC)c2c3cc(ccc31)-c1csc(n1)C[C@H](NC(=O)[C@H]1C[C@@H]1C)C(=O)N1CCC[C@H](N1)C(=O)OCC(C)(C)C2 (atropisomer, axis not shown) :: 670

Enquiry: Provide only the value of recorded IC50 for CCn1c(-c2cc(-c3ccc(=O)n(CCN4CCOCC4)c3)cnc2[C@H](C)OC)c2c3cc(ccc31)-c1csc(n1)C[C@H](NC(=O)[C@H]1C[C@@H]1C)C(=O)N1CCC[C@H](N1)C(=O)OCC(C)(C)C2 (atropisomer, axis not shown)
Return: 10

Enquiry: Return IC50 (reported value) for this compound: CCn1c(-c2cc(-c3ccc(CN4CC[C@@H](F)C4)cn3)cnc2[C@H](C)OC)c2c3cc(ccc31)-c1csc(n1)C[C@H](NC(=O)[C@H]1C[C@@H]1C)C(=O)N1CCC[C@H](N1)C(=O)OCC(C)(C)C2 (atropisomer, axis not shown)
Return: 4.1

Enquiry: Input CCn1c(-c2cc(-c3cc([C@H]4COCCN4C)on3)cnc2[C@H](C)OC)c2c3cc(ccc31)-c1csc(n1)C[C@H](NC(=O)[C@H]1[C@H](C)[C@@H]1C)C(=O)N1CCC[C@H](N1)C(=O)OCC(C)(C)C2 (atropisomer, axis not shown) , output reported IC50.
Return: 2.1
